- STUDY TARGET: human ether-à-go-go-related gene (hERG) potassium channel (human, UniProt Q12809)
- Sequence (Q12809 whole entry, looked up): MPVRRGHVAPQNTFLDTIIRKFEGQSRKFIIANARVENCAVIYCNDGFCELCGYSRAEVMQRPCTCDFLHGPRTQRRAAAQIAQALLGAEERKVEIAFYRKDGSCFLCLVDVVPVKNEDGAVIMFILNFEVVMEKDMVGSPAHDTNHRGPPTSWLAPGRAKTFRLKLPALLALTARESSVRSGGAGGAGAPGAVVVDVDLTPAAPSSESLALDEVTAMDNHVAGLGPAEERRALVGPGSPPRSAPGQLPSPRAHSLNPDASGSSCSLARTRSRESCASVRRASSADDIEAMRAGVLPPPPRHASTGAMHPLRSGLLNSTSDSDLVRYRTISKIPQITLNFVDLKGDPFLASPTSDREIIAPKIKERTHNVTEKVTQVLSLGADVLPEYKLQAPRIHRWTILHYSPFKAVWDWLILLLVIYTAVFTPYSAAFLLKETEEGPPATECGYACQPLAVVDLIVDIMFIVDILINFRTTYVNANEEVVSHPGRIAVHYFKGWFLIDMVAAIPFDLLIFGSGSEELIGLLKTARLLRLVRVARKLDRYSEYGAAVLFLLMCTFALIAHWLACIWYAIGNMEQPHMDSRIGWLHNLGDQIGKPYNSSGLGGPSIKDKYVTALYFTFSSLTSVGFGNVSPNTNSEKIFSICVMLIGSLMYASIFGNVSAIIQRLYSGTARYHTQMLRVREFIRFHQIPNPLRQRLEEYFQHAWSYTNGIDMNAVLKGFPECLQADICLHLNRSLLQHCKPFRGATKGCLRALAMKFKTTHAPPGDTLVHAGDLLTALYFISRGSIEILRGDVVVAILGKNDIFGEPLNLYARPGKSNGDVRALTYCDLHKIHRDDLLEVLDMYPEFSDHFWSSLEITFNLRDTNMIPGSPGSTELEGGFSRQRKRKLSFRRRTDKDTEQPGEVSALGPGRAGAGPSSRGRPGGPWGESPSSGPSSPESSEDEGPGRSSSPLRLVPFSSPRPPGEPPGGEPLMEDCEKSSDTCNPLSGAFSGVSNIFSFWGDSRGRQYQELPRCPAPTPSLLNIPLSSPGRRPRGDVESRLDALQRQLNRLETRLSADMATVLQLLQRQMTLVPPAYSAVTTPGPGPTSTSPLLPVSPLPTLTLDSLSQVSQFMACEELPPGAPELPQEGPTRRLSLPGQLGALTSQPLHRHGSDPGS
- TEST: primary screen, population patch clamp on CHO cells stably expressing hERG; higher = less effect of the substance
Among all 310,000 compounds or so, about 2,200 (0.71%) showed an effect of 50% or more. The effect is printed as a negative number. What follows is part of a selection rich in strong results, with near analogues and random picks from the rest.
MEASUREMENT NAME: hERG current change (%, negative = inhibition) at 1uM (%)
The answer is to be given in %; state only the numeric part.

The examples below pair each entry with its known result.
OCCC1CN(Cc2cnc(-c3ccccc3)s2)CCN1Cc1ccccc1 (stereo not shown) :: 1.93
Cc1ccc(CN2CCN(Cc3ccc(OCCO)cc3)CC2CCO)o1 (stereo not shown) :: 1.83
O=C1c2ccccc2C(=O)N1CSc1ncccn1 :: 1.65
CCOc1ccc(CN2CCN(Cc3cnc(-c4ccccc4)s3)CC2CCO)cc1 (stereo not shown) :: -90.1
CCOc1ccccc1CN1CCN(Cc2ccc(C)o2)CC1CCO (stereo not shown) :: -9.63

// query Given the compound COc1cc(C)ccc1OCCCOc1ccccc1Br , write its reported hERG current change (%, negative = inhibition) at 1uM.
// result 12.3

// query Given the compound Cc1ccc(CN2CCN(Cc3cc4ccccc4o3)CC2CCO)cc1 (stereo not shown) , write its reported hERG current change (%, negative = inhibition) at 1uM.
// result -12.5

// query Given the compound COc1ccc(Cl)cc1NC(=O)CSc1nnc(Cc2cccn2C)n1-c1ccc(F)cc1 , write its reported hERG current change (%, negative = inhibition) at 1uM.
// result 2.71

// query Given the compound CCOc1ccc(CN2CCN(Cc3cc4ccccc4o3)CC2CCO)cc1 (stereo not shown) , write its reported hERG current change (%, negative = inhibition) at 1uM.
// result -82

// query Given the compound CCOc1ccccc1CN1CCN(C2CCSCC2)CC1CCO (stereo not shown) , write its reported hERG current change (%, negative = inhibition) at 1uM.
// result -7.19
